Taken from patent US5712367A.

Experiment: Partition coefficient of N-tert-butyloxycarbonylpentaglycine esters between CH2Cl2 and H2O
Format: physicochemical
measured_endpoint: Partition coefficient between CH2 Cl2 and H2 O

- CC(C)(C)OC(=O)NCC(=O)NCC(=O)NCC(=O)NCC(=O)NCC(=O)OCc1cccc(C(=O)OCc2cccc(Oc3ccccc3)c2)c1: > 2,000
- CC(C)(C)OC(=O)NCC(=O)NCC(=O)NCC(=O)NCC(=O)NCC(=O)OCc1ccccc1: 4.1

Hello, I would appreciate it if you could give Partition coefficient between CH2 Cl2 and H2 O for each entry below.
1. CC(C)(C)OC(=O)NCC(=O)NCC(=O)NCC(=O)NCC(=O)NCC(=O)OCc1cccc(C(=O)OCc2ccc(-c3ccccc3)cc2)c1
2. COC(=O)CNC(=O)CNC(=O)CNC(=O)CNC(=O)CNC(=O)OC(C)(C)C

Reply:
["> 1,000", 0.66]
